- Tested on: SEM cells
- protocol_details: cell viability relative to DMSO control; higher = less cytotoxic
- details: RPMI 5 mM glucose + 10% FBS; 48 h; 1.71 µM
Entries and their cell viability
reported_endpoint: cell viability (%)

| smiles_record | target_system | measured_number |
| --- | --- | --- |
| O=C(CCCN1CCC(O)(c2ccc(Cl)cc2)CC1)c1ccc(F)cc1 | SEM cells | 47.2 |
| COc1ccc(-n2c(C)c([N+](=O)[O-])c3ccc(O)cc32)cc1 | SEM cells | 122 |
| CC1(C)CCC(C)(C)c2cc(NC(=O)c3ccc(C(=O)O)cc3)ccc21 | SEM cells | 111 |

###

Entries and their cell viability
- System: NOMO1
- protocol_details: cell viability relative to DMSO control; higher = less cytotoxic
- details: RPMI 5 mM glucose + 10% dialyzed FBS; 48 h; 0.569 µM

| compound | cell viability (%) |
| --- | --- |
| CN(C)C(=O)[C@H](O)[C@H](Cc1ccccc1)NC(=O)c1cc2cc(Cl)ccc2[nH]1 | 132 |
| COc1ccc(/C=C/C(=O)Nc2ccccc2C(=O)O)cc1OC | 105 |
| OC1=C(Cl)C=C(N\C2=C(\C(=O)NC2=O)C3=C(C=CC=C3)[N+]([O-])=O)C=C1 | 96.4 |
| COc1cc2c(cc1OC)CN(CCc1ccc(NC(=O)c3cccc4c(=O)c5cccc(OC)c5[nH]c34)cc1)CC2 | 133 |
| Clc1ccc(CCC(Cn2ccnc2)Sc2c(Cl)cccc2Cl)cc1 (stereo not drawn) | 90.1 |
| c1coc(CNc2ncnc3nc[nH]c23)c1 | 121 |
| COC(=O)CCC1=C(C)C2=CC3=NC(=CC4=C(C)C(=C([NH]4)C=C\5N=C(C=C1[NH]2)\C(=C5C)CCC(O)=O)C=C)\C6=C\C=C(/[C@@H](C(=O)OC)[C@@]36C)C(=O)OC | 93.7 |
| CC1(C)CCC(C)(C)c2cc(NC(=O)c3ccc(C(=O)O)cc3)ccc21 | 95.3 |
| Cn1cnc(N)c2ncnc1-2 | 120 |
| OC[C@H]1OC(O)C[C@@H](O)[C@@H]1O (stereo partly drawn) | 120 |
| COc1cccc(OC)c1-c1cc(C(=O)NC2(C(=O)O)C3CC4CC(C3)CC2C4)nn1-c1ccnc2cc(Cl)ccc12 (stereo not drawn) | 101 |
| CO[C@H]1C[C@@H]2CC[C@@H](C)[C@@](O)(O2)C(=O)C(=O)N2CCCC[C@H]2C(=O)O[C@H]([C@@H](C)C[C@@H]2CC[C@@H](O)[C@H](OC)C2)CC(=O)[C@H](C)/C=C(\C)[C@@H](O)[C@@H](OC)C(=O)[C@H](C)C[C@H](C)/C=C/C=C/C=C/1C | 111 |
| CC[C@H]1OC(=O)[C@H](C)[C@@H](O[C@H]2C[C@@](C)(OC)[C@@H](O)[C@H](C)O2)[C@H](C)[C@@H](O[C@@H]2O[C@H](C)C[C@H](N(C)C)[C@H]2O)[C@](C)(O)C[C@@H](C)/C(=N\OCOCCOC)[C@H](C)[C@@H](O)[C@]1(C)O | 72.1 |

###

Entries and their AUC of viability dose-response curve
- System: P12-Ichikawa
- protocol_details: AUC of viability dose-response curve (% viability x log10 dose units); higher = less sensitive
- details: RPMI 5 mM glucose + 10% dialyzed FBS; 48 h

| smiles_record | AUC of viability dose-response curve |
| --- | --- |
| CN1CCN(CC1)C2=CC3=C([NH]C(=N3)C/4=C(\N)C5=C(F)C=CC=C5NC4=O)C=C2 | 399 |
| CCCCCN(C)CCC(O)(P(=O)([O-])O)P(=O)(O)O | 409 |
| Cn1cnc(N)c2ncnc1-2 | 399 |

###

- Test system: P12-Ichikawa
- protocol_details: cell viability relative to DMSO control; higher = less cytotoxic
- details: HPLM + 10% dialyzed FBS; 48 h; 1.71 µM
Entries and their cell viability

| compound | scale_unit | cell viability |
| --- | --- | --- |
| O=C(O)c1cccnc1 | % | 96.1 |
| Clc1ccc(C(c2ccc(Cl)cc2)[n+]2ccn(CC(OCc3ccc(Cl)cc3Cl)c3ccc(Cl)cc3Cl)c2)cc1 (centres undefined) | % | 98.1 |
| CCc1nc(N)nc(N)c1-c1ccc(Cl)cc1 | % | 56.5 |
| Nc1nccc(-c2ccc3noc(-c4ccc(Cl)cc4)c3c2)n1 | % | 120 |
| CC(C)C[C@H](CC(=O)O)C(=O)N[C@@H](Cc1c[nH]c2ccccc12)C(=O)N[C@@H](C)c1ccccc1 | % | 107 |
| CCOc1ccccc1N/N=C1/C(=O)N(c2nc(-c3ccccc3)cs2)N=C1C | % | 101 |
| CC(=O)OCC(=O)[C@@]1(O)CC[C@H]2[C@@H]3CCC/4=C/C(=O)/C=C\[C@]4(C)[C@H]3[C@@H](O)C[C@]12C | % | 72.1 |
| CC(C)[C@H]1C(=O)N[C@H](CO)Cc2c[nH]c3cccc(c23)N1C | % | 88.1 |
| CC(=O)N(O)CCCCCNC(=O)CCC(=O)N(O)CCCCCNC(=O)CCC(=O)N(O)CCCCCN.C[S+](=O)([O-])O | % | 9.88 |
| COc1cc(C[C@@H](CO)[C@H](CO)Cc2ccc(O)c(OC)c2)ccc1O | % | 111 |
| CCCC[S+](=N)([O-])CCC(N)C(=O)O (centres undefined) | % | 139 |
| CN(C[C@@H]1COCCO1)[S+]([O-])(=O)NC2=CC3=C(C=C2)\C=C/C4=C(C=C(C=N4)C5=C[N](C)N=C5)C3=O | % | 67.4 |
| CC(C)[C@]12O[C@H]1[C@@H]3O[C@@]34[C@@]5(C)CC\C6=C(COC6=O)/[C@@H]5C[C@@H]7O[C@]47[C@@H]2O | % | 8.95 |
| O=C(O)c1cccc(-c2noc(-c3ccccc3F)n2)c1 | % | 98.6 |

###

Entries and their cell viability
- System: SEM cells
- protocol_details: cell viability relative to DMSO control; higher = less cytotoxic
- details: RPMI 5 mM glucose + 10% dialyzed FBS; 48 h; 0.0211 µM

| molecule | cell viability [%] |
| --- | --- |
| Clc1ccc(CCC(Cn2ccnc2)Sc2c(Cl)cccc2Cl)cc1 (stereo not drawn) | 92.5 |
| c1ccc2c(CN3CCNCC3)cccc2c1 | 124 |
| CC1(C)[C@@H](O)CC[C@@]2(C)[C@H]1CC[C@]3(C)[C@@H]2C(=O)\C=C/4[C@@H]5C[C@](C)(CC[C@]5(C)CC[C@@]34C)C(O)=O | 109 |
| COc1cc(N2CCN(C)CC2)ccc1Nc1nc(N)c(C(=O)c2c(Cl)cccc2Cl)s1 | 116 |
| CN(C)CCc1c[nH]c2ccc(Cn3cncn3)cc12 | 97.5 |
| NC(=O)c1nnn(Cc2cc(Cl)c(C(=O)c3ccc(Cl)cc3)c(Cl)c2)c1N | 90.5 |
| O=C1c2ccccc2-c2n[nH]c3cccc1c23 | 105 |
| Nc1ncnc2nc(-c3ccc(N4CCOCC4)nc3)cc(-c3cccc(Br)c3)c12 | 133 |
| CO[C@H]1C[C@@H]2CC[C@@H](C)[C@@](O)(O2)C(=O)C(=O)N2CCCC[C@H]2C(=O)O[C@H]([C@@H](C)C[C@@H]2CC[C@@H](O)[C@H](OC)C2)CC(=O)[C@H](C)/C=C(\C)[C@@H](O)[C@@H](OC)C(=O)[C@H](C)C[C@H](C)/C=C/C=C/C=C/1C | 85.7 |
| c1cc2c(cc1[C@H]1OC[C@H]3[C@@H]1CO[C@@H]3c1ccc3c(c1)OCO3)OCO2 | 130 |
| CCC[C@H](Nc1nc(-c2ccc(NC(=O)NCC)c(OC)c2)ncc1C)c1cccnc1 | 134 |
| CN1CCN(c2ncc(-c3cc(Cl)cc(Cl)c3Cl)c(N)n2)CC1 | 133 |
| c1coc(CNc2ncnc3nc[nH]c23)c1 | 114 |

###

- System: P12-Ichikawa
- protocol_details: cell viability relative to DMSO control; higher = less cytotoxic
- details: HPLM + 10% dialyzed FBS; 48 h; 0.00234 µM
Entries and their cell viability
reported_endpoint: cell viability

| compound | result |
| --- | --- |
| CC(C)(Sc1cc(C(C)(C)C)c(O)c(C(C)(C)C)c1)Sc1cc(C(C)(C)C)c(O)c(C(C)(C)C)c1 | 84.4% |
| CN1CCC(CNc2ccc3ncc(-c4cccc(OC(F)(F)F)c4)n3n2)CC1 | 110% |
| OC[C@H]1OC(O)C[C@@H](O)[C@@H]1O (some centres undefined) | 124% |
| COc1cc(N2CCC(N3CCN(C)CC3)CC2)ccc1Nc1ncc(Cl)c(Nc2ccccc2[S+](=O)([O-])C(C)C)n1 | 101% |
